Taken from ChEMBL document CHEMBL1156824.

# Species on record: Homo sapiens
# protocol: Fraction escaping hepatic elimination in human
# test.context: in vivo
test.readout: Fh

Look over these answered cases.
compound	result
CC(C)(C)NCC(O)c1ccc(O)c(CO)c1 (centres undefined)	0.88
Nc1ccc(S(=O)(=O)c2ccc(N)cc2)cc1	0.98
CN1[C@@H]2CC[C@H]1C[C@@H](OC(=O)C(CO)c1ccccc1)C2 (some centres undefined)	0.86
Cc1cc(NS(=O)(=O)c2ccc(N)cc2)no1	0.99
CN1[C@@H]2C[C@@H](OC(=O)[C@H](CO)c3ccccc3)C[C@H]1[C@@H]1O[C@@H]12	0.35

Value of Fh reported for the compound COc1cc(Cc2cnc(N)nc2N)cc(OC)c1OC is 0.95

Form: compound = COc1cc([C@@H]2c3cc4c(cc3[C@@H](O[C@@H]3O[C@@H]5CO[C@@H](C)O[C@H]5[C@H](O)[C@H]3O)[C@H]3COC(=O)[C@H]23)OCO4)cc(OC)c1O [ETOPOSIDE] ; Fh = 0.99

Note to self: Fh recorded for CN1CCC[C@H]1c1cccnc1 was 0.35

Value of measured Fh for the entry CC(C)NCC(O)COc1ccc(CC(N)=O)cc1 (centres undefined) : 1

====

# Species on record: Homo sapiens
# protocol: Hepatic clearance in human
# test.context: in vivo
Checkbox rule: CL lower than 0.3 mL/min/kg = 1 (yes); CL not lower than 0.3 mL/min/kg = 0 (no).

In [3]: df
Out[3]:
                                   compound  assigned_label
0  CC1(C)S[C@@H]2[C@H](NC(=O)[C@H](N)c3ccc(O)cc3)C(=O)N2[C@H]1C(=O)O [AMOXICILLIN]          0 (no)

# check: CL < 0.3 mL/min/kg for CN1CCC[C@H]1c1cccnc1 [NICOTINE] 0 (no)

Strictly below 0.3 mL/min/kg in CL? CCOc1ccc(/C=C2\NCCc3cc(OCC)c(OCC)cc32)cc1OCC [DROTAVERINE] 0 (no)

Lab log: compare recorded CL with 0.3 mL/min/kg; is it strictly lower for CN1C(C(=O)Nc2ccccn2)=C(O)c2sccc2S1(=O)=O [TENOXICAM] ? 1 (yes)

====

# Species: Homo sapiens
# protocol: Hepatic clearance in human
# test.context: in vivo
CL by entry:
Could you give me the number in mL/min/kg? Just the number is fine.

These recorded examples may help you get a feel for the data.
In [3]: df
Out[3]:
                                   molecule  reading_unit  recorded_number
0  Cc1nccn1CC1CCc2c(c3ccccc3n2C)C1=O (stereo not given)     mL/min/kg              5.5
1     COc1ccc(Cc2nccc3cc(OC)c(OC)cc23)cc1OC     mL/min/kg               11
2  NS(=O)(=O)c1cc2c(cc1C(F)(F)F)NCNS2(=O)=O [HYDROFLUMETHIAZIDE]     mL/min/kg              0.7
3   Cc1ccc(-c2nc3ccc(C)cn3c2CC(=O)N(C)C)cc1     mL/min/kg              4.3

// moving on: another record for CL
Measured CL, O=c1[nH]c2ccccc2n1CCCN1CCC(n2c(=O)[nH]c3cc(Cl)ccc32)CC1 : 9.5
